System: KB
TEST_PROTOCOL: Cytotoxicity against human KB cells
Type: functional, cell-based
STUDY_CONDITIONS: kb
PARAMETER_MEASURED: EC50 (µg/mL)
// units = µg/mL; emit number, no label

(Q) Enter measured EC50, system KB, for the compound shown: C/C=C\C(=O)O[C@@H]1C[C@H]2O[C@@H]3C=C(C)C(=O)C[C@]3(C)[C@]1(C)[C@]21CO1 [TRICHOTHECIN]
(A) 35

(Q) Enter measured EC50, system KB, for the compound shown: CC1=C[C@H]2O[C@@H]3C[C@@H](O)[C@](C)([C@@]2(C)CC1=O)[C@]31CO1 [TRICHOTHECOLONE]
(A) 10.6

(Q) Enter measured EC50, system KB, for the compound shown: C/C=C\C(=O)O[C@@H]1[C@@H](O)[C@H]2O[C@@H]3C=C(C)CC[C@]3(C)[C@]1(C)[C@]21CO1 [8-DIHYDROTRICHOTHECINOL A]
(A) 0.1

(Q) Enter measured EC50, system KB, for the compound shown: C/C=C\C(=O)O[C@@H]1[C@@H](O)[C@H]2O[C@@H]3C=C(C)C(=O)C[C@]3(C)[C@]1(C)[C@]21CO1 [TRICHOTHECINOL A]
(A) 0.014

These data points were gathered from ChEMBL document CHEMBL1155655.
